# Test system: Isolated Chicken Hepatocytes
# protocol_description: Inhibition of lipogenesis (14C acetate incorporation) in isolated chicken hepatocytes
# Type: cell-based
# setup_conditions: Gallus gallus, Hepatocyte, 2 h, Test 1; 0.01 μM; read-out: percent change compared to control, 14C acetate incorporation in fatty acids
// values below are reported inhibition at 0.01 µM
property_name: inhibition at 0.01 µM (%)

| compound | assayed_target | measured_result |
| --- | --- | --- |
| CC(C)NCC(O)c1ccc(O)c(O)c1 (stereo not shown) | Isolated Chicken Hepatocytes | 29.1 |
| Cc1ccc(C(=O)Oc2ccc(C(O)CNC(C)(C)C)cc2OC(=O)c2ccc(C)cc2)cc1 (stereo not shown) | Isolated Chicken Hepatocytes | 0 |
| CC(C)(C)NCC(O)c1cc(Br)no1 (stereo not shown) | Isolated Chicken Hepatocytes | 0 |
| Cn1c(=O)c2c(ncn2CCCNCC(O)c2cc(O)cc(O)c2)n(C)c1=O (stereo not shown) | Isolated Chicken Hepatocytes | 0 |
| CC(C)(Cc1ccccc1)NCC(O)c1ccc(O)c(NS(C)(=O)=O)c1 (stereo not shown) | Isolated Chicken Hepatocytes | 45.2 |
| CC(CCc1ccccc1)NCC(O)c1ccc(N)nc1 (stereo not shown) | Isolated Chicken Hepatocytes | 33.7 |
| COc1ccc(CNc2cc(C(O)CNC(C)(C)C)ccc2O)cc1 (stereo not shown) | Isolated Chicken Hepatocytes | 9.5 |

---

# Test system: Isolated Ovine Adipocytes
# protocol_description: Stimulation of lipolysis (glycerol production) in isolated ovine adipocytes
# Assay type: cell-based, sheep
# setup_conditions: Ovis aries, Adipocyte, 2 h, Test 1; 0.05 μM; read-out: percent increase compared to control, glycerol production
// values below are reported activation at 0.05 µM
property_name: activation at 0.05 µM (%)

| compound | readout_unit | measured_result |
| --- | --- | --- |
| Cn1c(=O)c2c(ncn2CCCNCC(O)c2cc(O)cc(O)c2)n(C)c1=O (stereo not shown) [VI, Reproterol] | % | 130 |
| COc1ccc(CNc2cc(C(O)CNC(C)(C)C)ccc2O)cc1 (stereo not shown) [III] | % | 845 |
| CC(C)(Cc1ccccc1)NCC(O)c1ccc(O)c(NS(C)(=O)=O)c1 (stereo not shown) [I, Zinterol] | % | 960 |
| Cc1ccc(C(=O)Oc2ccc(C(O)CNC(C)(C)C)cc2OC(=O)c2ccc(C)cc2)cc1 (stereo not shown) [Compound V, Bitolterol] | % | 435 |
